assay: Plasma pharmacokinetics of GT-01803 in mice; format: in vivo, male C57BL/6 mice; conditions: male, C57BL/6, mouse, po, 10 mg/kg
Measurement Kind: AUC(0-t) (ng·h/mL)
// units = ng·h/mL; emit number, no label

Please give the documented AUC(0-t) of CCN(CC(=O)Nc1c(Cl)cccc1Cl)Cc1nc2ccsc2c(=O)[nH]1 [GT-01803]
33000

====

experiment: Plasma pharmacokinetics of GT-01803 in mice; type: in vivo, male C57BL/6 mice; conditions: male, C57BL/6, mouse, po, 10 mg/kg
Measurement Kind: AUC(0-inf) (µg·h/mL)
// units = µg·h/mL; emit number, no label

Please give the documented AUC(0-inf) of CCN(CC(=O)Nc1c(Cl)cccc1Cl)Cc1nc2ccsc2c(=O)[nH]1 [GT-01803]
33.2

====

test: Plasma pharmacokinetics of GT-01803 in mice; type: in vivo, male C57BL/6 mice; settings: male, C57BL/6, mouse, iv, 2 mg/kg
Measurement Kind: clearance (mL/min/kg)
// units = mL/min/kg; emit number, no label

Please give the documented clearance of CCN(CC(=O)Nc1c(Cl)cccc1Cl)Cc1nc2ccsc2c(=O)[nH]1 [GT-01803]
2.45

====

assay: Plasma pharmacokinetics of GT-01803 in mice; type: in vivo, male C57BL/6 mice; conditions: male, C57BL/6, mouse, po, 10 mg/kg
Measurement Kind: Tmax (min)
// units = min; emit number, no label

Please give the documented Tmax of CCN(CC(=O)Nc1c(Cl)cccc1Cl)Cc1nc2ccsc2c(=O)[nH]1
15

====

test: Plasma pharmacokinetics of GT-01803 in mice; format: in vivo, male C57BL/6 mice; details: male, C57BL/6, mouse, po, 10 mg/kg
Measurement Kind: Cmax (ng/mL)
// units = ng/mL; emit number, no label

Please give the documented Cmax of CCN(CC(=O)Nc1c(Cl)cccc1Cl)Cc1nc2ccsc2c(=O)[nH]1
33900

====

test: Plasma pharmacokinetics of GT-01803 in mice; format: in vivo, male C57BL/6 mice; conditions: male, C57BL/6, mouse, oral, p.o. 10 mg/kg vs i.v. 2 mg/kg, AUClast considered, read-out: %F (oral bioavailability)
Measurement Kind: bioavailability (%)
// units = %; emit number, no label

Please give the documented bioavailability of CCN(CC(=O)Nc1c(Cl)cccc1Cl)Cc1nc2ccsc2c(=O)[nH]1 [GT-01803]
50

====

test: Plasma pharmacokinetics of GT-01803 in mice; format: in vivo, male C57BL/6 mice; details: male, C57BL/6, mouse, iv, 2 mg/kg
Measurement Kind: half-life (h)
// units = h; emit number, no label

Please give the documented half-life of CCN(CC(=O)Nc1c(Cl)cccc1Cl)Cc1nc2ccsc2c(=O)[nH]1
3.54
